tested on: NCI-H522 (Lung Adenocarcinoma); experiment: combination Emax (second highest fraction inhibited in the dose matrix, 72 h); higher = more inhibition; extreme values may be limits of the assay
attribute.measured: combination Emax
The answer should be a number; do not append a unit.

## Input # input compound: CC1(C)CCC(CN2CCN(c3ccc(C(=O)NS(=O)(=O)c4ccc(NCC5CCOCC5)c([N+](=O)[O-])c4)c(Oc4cnc5[nH]ccc5c4)c3)CC2)=C(c2ccc(Cl)cc2)C1 [Venetoclax] + C[C@@H]1COCCN1C2=NC(=NC(=C2)C3(CC3)[S@](=N)(=O)C)C4=C5C=CNC5=NC=C4 [AZD6738] (first compound max 1 µM, 7x7, partner max 10 µM) ; wanted: its combination Emax
## Output 0.161

## Input # input compound: CC(=O)c1c(C)c2cnc(Nc3ccc(N4CCNCC4)cn3)nc2n(C2CCCC2)c1=O [Palbociclib] + CC1(C)CCC(CN2CCN(c3ccc(C(=O)NS(=O)(=O)c4ccc(NCC5CCOCC5)c([N+](=O)[O-])c4)c(Oc4cnc5[nH]ccc5c4)c3)CC2)=C(c2ccc(Cl)cc2)C1 [Venetoclax] (first compound max 10 µM, 7x7, partner max 1 µM) ; wanted: its combination Emax
## Output 0.127

## Input # input compound: Cc1c2c(nn1C)CSCc1cc(n(C)n1)CSc1cc(c3ccccc3c1)OCCCc1c(C(=O)O)n(C)c3c-2c(Cl)ccc13 [AZD5991] + C1CN(CCC1(C(=O)N[C@@H](CCO)C2=CC=C(C=C2)Cl)N)C3=NC=NC4=C3C=CN4 [Capivasertib] (first compound max 1 µM, 7x7, partner max 3 µM) ; wanted: its combination Emax
## Output 0.507
